B1: VPS39 (parent)
chain: ITEEKVCMVCKKKIGNSAFARYPN

variants of: B1; assay: protein stability index of a GFP-peptide fusion (GPS, HEK-293T) (PSI 1-6); higher = more stable; details: c terminus: a fixed tail appended;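 also: lentivirally expressed fusions sorted by FACS into six bins by GFP to DsRed ratio, PSI derived from sequencing read proportions per bin multiplied by bin number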
Each record here notes measured protein stability index.
Give the figure by itself; no unit, no explanation.

Solved cases below.
# mutation key, protein stability index
records = [
    ("E3D", 2.55),
    ("C7Q", 3.31),
]

GET /values?readout=protein stability index&item= `N24P`
2.37

What value of protein stability index has been reported for the following variant? `K13T`
1.83

Reported protein stability index, variant `N24I` : ____
1.86

Dear colleague, I am looking for the recorded protein stability index of the following variant: `K5F`
2.21

I have this variant here, `A18R` , and I need its recorded protein stability index.
2.26

protein stability index lookup needed for `K13M` , thanks.
2.07

What value of measured protein stability index is listed for `Y22I` ?
2.39

Quick one: protein stability index for `K11I` ?
1.85

Look up protein stability index: `S17D`
2.78
